Attribution: patent US5700804A

- targetEntity: PAI-1 (Homo sapiens, UniProt P05121)
- Sequence (P05121 24-402): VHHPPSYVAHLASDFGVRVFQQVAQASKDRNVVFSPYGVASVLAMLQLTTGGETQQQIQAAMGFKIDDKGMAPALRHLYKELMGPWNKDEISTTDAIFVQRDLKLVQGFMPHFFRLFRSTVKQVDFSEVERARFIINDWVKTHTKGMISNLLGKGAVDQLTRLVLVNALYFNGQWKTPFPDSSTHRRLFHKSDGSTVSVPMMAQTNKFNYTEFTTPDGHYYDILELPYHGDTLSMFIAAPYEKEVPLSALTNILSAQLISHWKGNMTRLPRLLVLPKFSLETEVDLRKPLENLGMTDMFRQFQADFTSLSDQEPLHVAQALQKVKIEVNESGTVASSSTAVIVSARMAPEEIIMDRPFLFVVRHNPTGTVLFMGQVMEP
- experimentNotes: PAI chromogenic substrate assay (first S2251 assay, tPA/plasminogen system)
- Type: biochemical
- runParameters: Concentration 50 μm
- Method: In this assay, a compound is incubated with PAI-1 prior to addition to the tPA assay system. Inhibition of PAI-1 results in the production of plasmin from plasminogen. In turn, plasmin cleaves the chromogenic substrate S2251 (Kabi Vitrum) producing pNA (p-nitroaniline) which is detected spectrophotometrically at 405 nm (K. Nilsson et al, Fibrinolysis (1987) 1, 163-168). Compounds of formula (A) were tested in a PAI chromogenic substrate assay. […]
propertyMeasured: Inhibition of PAI-1 in the first S2251 chromogenic substrate assay (%)

// worked examples, Inhibition of PAI-1 in the first S2251 chromogenic substrate assay included
{"compound": "CCCCOc1ccc(/C=c2\\[nH]c(=O)/c(=C/c3ccc(OC)cc3)[nH]c2=O)cc1 [Compound 47]", "measuredValue": 58}
{"compound": "COc1ccc(/C=c2\\[nH]c(=O)/c(=C/c3c(Cl)cccc3Cl)[nH]c2=O)cc1 [Compound 29]", "measuredValue": 76}

P = COC(=O)CCCC(=O)NCc1ccc(/C=c2\[nH]c(=O)/c(=C/c3ccccc3)[nH]c2=O)cc1 [Compound 94]
Q = COc1ccc(/C=c2\[nH]c(=O)/c(=C/c3ccccc3Br)[nH]c2=O)cc1 [Compound 53]
Which of the two items, P and Q , has the greater recorded Inhibition of PAI-1 in the first S2251 chromogenic substrate assay? Answer by stating the label of the chosen item.
P
(P: 62%, Q: 32%)

P = COc1ccc(/C=c2\[nH]c(=O)/c(=C/c3ccc(S(C)(=O)=O)cc3)[nH]c2=O)cc1 [Compound 46]
Q = COc1ccc(/C=c2\[nH]c(=O)/c(=C/c3ccccc3[N+](=O)[O-])[nH]c2=O)cc1 [Compound 28]
Look at P and Q . Which one has the lower recorded Inhibition of PAI-1 in the first S2251 chromogenic substrate assay number? Please identify the chosen entry by its label.
P
(P: 42%, Q: 74%)

I = O=C(O)CCCCOc1ccc(/C=c2\[nH]c(=O)/c(=C/c3ccccc3)[nH]c2=O)cc1 [Compound 97]
II = COc1ccc(/C=c2\[nH]c(=O)/c(=C/c3ccc(CSC)cc3)[nH]c2=O)cc1 [Compound 57]
Of the two listed items, which has the higher Inhibition of PAI-1 in the first S2251 chromogenic substrate assay? First: I Second: II Mark your selection by writing its label.
II
(II: 72%, I: 24%)

---

- targetEntity: PAI-1 (Homo sapiens, UniProt P05121)
- experimentNotes: PAI chromogenic substrate assay (first S2251 assay, tPA/plasminogen system)
- Assay type: biochemical
- runParameters: Concentration 12.5 μm
propertyMeasured: Inhibition of PAI-1 in the first S2251 chromogenic substrate assay (%)

Below: 3 molecules and their reported Inhibition of PAI-1 in the first S2251 chromogenic substrate assay.
{"molecule": "CCOc1ccc(/C=c2\\[nH]c(=O)/c(=C/c3ccccc3)[nH]c2=O)cc1 [Compound 25]", "measureUnit": "%", "measuredValue": 0}
{"molecule": "CN(C)CCCOc1ccc(/C=c2\\[nH]c(=O)/c(=C/c3ccccc3)[nH]c2=O)cc1 [Compound 75]", "measureUnit": "%", "measuredValue": 6}
{"molecule": "COc1ccc(/C=c2\\[nH]c(=O)/c(=C/c3ccccc3Br)[nH]c2=O)cc1 [Compound 53]", "measureUnit": "%", "measuredValue": 2}

a = O=c1[nH]c(=Cc2ccccc2)c(=O)[nH]c1=Cc1ccccc1 [Compound 22, 3,6-Dibenzylidene-2,5-piperazinedione]
b = CN(C)c1ccc(/C=c2\[nH]c(=O)/c(=C/c3ccccc3)[nH]c2=O)c2ccccc12 [Compound 89]
c = CC(=O)Nc1ccc(/C=c2\[nH]c(=O)/c(=C/c3ccc(OC(=O)C(C)(C)C)cc3)[nH]c2=O)cc1 [Compound 82]
Ordering criterion: Inhibition of PAI-1 in the first S2251 chromogenic substrate assay; begin with the maximum. Answer by naming the labels in the order asked.
b, c, a

---

- targetEntity: PAI-1 (Homo sapiens, UniProt P05121)
- experimentNotes: PAI chromogenic substrate assay (first S2251 assay, tPA/plasminogen system)
- Assay type: biochemical
- runParameters: Concentration 6.25 μm
- Procedure: In this assay, a compound is incubated with PAI-1 prior to addition to the tPA assay system. Inhibition of PAI-1 results in the production of plasmin from plasminogen. In turn, plasmin cleaves the chromogenic substrate S2251 (Kabi Vitrum) producing pNA (p-nitroaniline) which is detected spectrophotometrically at 405 nm (K. Nilsson et al, Fibrinolysis (1987) 1, 163-168). Compounds of formula (A) were tested in a PAI chromogenic substrate assay. […]
propertyMeasured: Inhibition of PAI-1 in the first S2251 chromogenic substrate assay (%)

Consider the following illustrative entries.
{"compound": "CN(C)c1ccc(/C=c2\\[nH]c(=O)/c(=C/c3ccccc3)[nH]c2=O)c2ccccc12 [Compound 89]", "measuredValue": 7}
{"compound": "COc1ccc(/C=c2\\[nH]c(=O)/c(=C/c3ccc(NC(=O)COC(C)=O)cc3)[nH]c2=O)cc1 [Compound 87]", "measuredValue": 0}
{"compound": "CC(=O)Oc1cccc(/C=c2\\[nH]c(=O)/c(=C/c3ccccc3)[nH]c2=O)c1 [Compound 31]", "measuredValue": 0}

I = CC(=O)NCc1ccc(/C=c2\[nH]c(=O)/c(=C/c3ccccc3)[nH]c2=O)cc1 [Compound 44]
II = O=C(O)CCCCOc1ccc(/C=c2\[nH]c(=O)/c(=C/c3ccccc3)[nH]c2=O)cc1 [Compound 97]
Identify the entry with the smaller Inhibition of PAI-1 in the first S2251 chromogenic substrate assay: I or II . Let me know the label of the one you choose.
II

P = COc1ccc(/C=c2\[nH]c(=O)/c(=C/c3ccccc3[N+](=O)[O-])[nH]c2=O)cc1 [Compound 28]
Q = COc1ccc(/C=c2\[nH]c(=O)/c(=C/c3ccc(NC(C)=O)cc3)[nH]c2=O)cc1OC [Compound 92]
Name the one with the greater Inhibition of PAI-1 in the first S2251 chromogenic substrate assay value, either P or Q as given. State the label of the item chosen.
Q

1 = CCOC(=O)CCCCC(=O)NCc1ccc(/C=c2\[nH]c(=O)/c(=C/c3ccccc3)[nH]c2=O)cc1 [Compound 95]
2 = CC(=O)Nc1ccc(/C=c2\[nH]c(=O)/c(=C/c3c(Cl)cccc3Cl)[nH]c2=O)cc1 [Compound 40]
Hey, which is lower on measured Inhibition of PAI-1 in the first S2251 chromogenic substrate assay, 1 or 2 ? Answer format: the label of the selected item.
2

---

- targetEntity: PAI-1 (Homo sapiens)
- experimentNotes: PAI chromogenic substrate assay (first S2251 assay, tPA/plasminogen system)
- Format: biochemical
- runParameters: Concentration 12.5 μm
propertyMeasured: Inhibition of PAI-1 in the first S2251 chromogenic substrate assay (%)

Completed entries (count: 2):
{"compound": "COc1ccc(/C=c2\\[nH]c(=O)/c(=C/c3ccccc3C(F)(F)F)[nH]c2=O)cc1 [Compound 70]", "targetEntity": "PAI-1 (Homo sapiens)", "measuredValue": 4}
{"compound": "O=c1[nH]/c(=C\\c2ccc(O)cc2Cl)c(=O)[nH]/c1=C\\c1ccccc1 [Compound 85]", "targetEntity": "PAI-1 (Homo sapiens)", "measuredValue": 27}

P = CC(=O)SCc1ccc(/C=c2\[nH]c(=O)/c(=C/c3ccccc3)[nH]c2=O)cc1 [Compound 76]
Q = COc1ccc(/C=c2\[nH]c(=O)/c(=C/c3ccc(CNC(=O)OC(C)(C)C)cc3)[nH]c2=O)cc1 [Compound 56]
Lower value for measured Inhibition of PAI-1 in the first S2251 chromogenic substrate assay? Options: P , Q Write down the label of the entry you select.
Q
(Q: 2%, P: 5%)

---

- targetEntity: PAI-1 (Homo sapiens)
- experimentNotes: PAI chromogenic substrate assay (first S2251 assay, tPA/plasminogen system)
- Type: biochemical
- runParameters: Concentration 6.25 μm
- Description: In this assay, a compound is incubated with PAI-1 prior to addition to the tPA assay system. Inhibition of PAI-1 results in the production of plasmin from plasminogen. In turn, plasmin cleaves the chromogenic substrate S2251 (Kabi Vitrum) producing pNA (p-nitroaniline) which is detected spectrophotometrically at 405 nm (K. Nilsson et al, Fibrinolysis (1987) 1, 163-168). Compounds of formula (A) were tested in a PAI chromogenic substrate assay. […]
propertyMeasured: Inhibition of PAI-1 in the first S2251 chromogenic substrate assay (%)

Please review the entries below; each comes with its answer.
{"molecule": "COc1ccc(/C=c2\\[nH]c(=O)/c(=C/c3ccc(NC(=O)CO)cc3)[nH]c2=O)cc1", "measureUnit": "%", "measuredValue": 0}
{"molecule": "COc1ccc(/C=c2\\[nH]c(=O)/c(=C/c3ccc(O)cc3Cl)[nH]c2=O)cc1", "measureUnit": "%", "measuredValue": 1}
{"molecule": "CN(C)CCCOc1ccc(/C=c2\\[nH]c(=O)/c(=C/c3ccccc3)[nH]c2=O)cc1 [Compound 98]", "measureUnit": "%", "measuredValue": 4}

1 = CC(=O)Nc1ccc(/C=c2\[nH]c(=O)/c(=C/c3ccccc3C(F)(F)F)[nH]c2=O)cc1
2 = CC(=O)OCc1ccc(/C=c2\[nH]c(=O)/c(=C/c3ccccc3)[nH]c2=O)cc1
When the recorded Inhibition of PAI-1 in the first S2251 chromogenic substrate assay values are compared, which is smaller: that of 1 or that of 2 ? I would appreciate it if you answered with the label of your choice.
2
